Listed here are compounds together with their documented IC50.
- System: PNT-1A
- measurement-notes: WST-1 cytotoxicity, PNT-1A normal cells
- Assay type: cell-based, human
- measurement-setup: PNT-1A normal cell, 48 h
Reply with just the number (in µM).

Known results for compounds:
N.N.[Cl][Pt][Cl] [Cisplatin, reference compound]: 11.4
NS(=O)(=O)c1ccc(CCN=Cc2cc(Cl)cc(Cl)c2O)cc1: 170
NS(=O)(=O)c1ccc(CCNCc2cc(Cl)cc(Cl)c2O)cc1: 23.2

Exercise: Hi! What's the reported IC50 for `NS(=O)(=O)c1ccc(CCNCc2ccccc2O)cc1` on PNT-1A?
Solution: 89.4

Exercise: Lookup `NS(=O)(=O)c1ccc(CCNCc2cc(Cl)ccc2O)cc1`
Solution: 190

Exercise: Lookup `NS(=O)(=O)c1ccc(CCN=Cc2cc(Cl)ccc2O)cc1`
Solution: 110

Exercise: Lookup `NS(=O)(=O)c1ccc(CCN=Cc2ccccc2O)cc1`
Solution: 43.3

---

- System: HT-29
- measurement-notes: WST-1 cytotoxicity, HT-29
- Assay type: cell-based, human
- measurement-setup: HT-29, 24 h
Each record is given y if its reported IC50 is strictly below 200 µM. Records at or above 200 µM are given n.

NS(=O)(=O)c1ccc(CCN=Cc2ccccc2O)cc1: y

Then this compound:
Exercise: Quick check: IC50 of `NS(=O)(=O)c1ccc(CCN=Cc2cc(Cl)cc(Cl)c2O)cc1` under 200 µM?
Solution: n

---

Listed here are compounds together with their documented IC50.
- Tested on: HT-29
- measurement-notes: WST-1 cytotoxicity, HT-29
- Format: cell-based, human
- measurement-setup: HT-29, 24 h
Reply with just the number (in µM).

Known results for compounds:
NS(=O)(=O)c1ccc(CCN=Cc2cc(Cl)ccc2O)cc1 [Compound A-1]: 299
NS(=O)(=O)c1ccc(CCNCc2cc(Cl)cc(Cl)c2O)cc1 [Compound B-2]: 356
N.N.[Cl][Pt][Cl] [Cisplatin, reference compound]: 23.7
NS(=O)(=O)c1ccc(CCNCc2ccccc2O)cc1 [Compound B-3]: 560

# evaluate next
Exercise: Hi! What's the reported IC50 for NS(=O)(=O)c1ccc(CCNCc2cc(Cl)ccc2O)cc1 [Compound B-1] on HT-29?
Solution: 606
